targetOfAssay: DNA polymerase kappa (Homo sapiens) (UniProt Q9UBT6)
Sequence (Q9UBT6 whole entry, looked up): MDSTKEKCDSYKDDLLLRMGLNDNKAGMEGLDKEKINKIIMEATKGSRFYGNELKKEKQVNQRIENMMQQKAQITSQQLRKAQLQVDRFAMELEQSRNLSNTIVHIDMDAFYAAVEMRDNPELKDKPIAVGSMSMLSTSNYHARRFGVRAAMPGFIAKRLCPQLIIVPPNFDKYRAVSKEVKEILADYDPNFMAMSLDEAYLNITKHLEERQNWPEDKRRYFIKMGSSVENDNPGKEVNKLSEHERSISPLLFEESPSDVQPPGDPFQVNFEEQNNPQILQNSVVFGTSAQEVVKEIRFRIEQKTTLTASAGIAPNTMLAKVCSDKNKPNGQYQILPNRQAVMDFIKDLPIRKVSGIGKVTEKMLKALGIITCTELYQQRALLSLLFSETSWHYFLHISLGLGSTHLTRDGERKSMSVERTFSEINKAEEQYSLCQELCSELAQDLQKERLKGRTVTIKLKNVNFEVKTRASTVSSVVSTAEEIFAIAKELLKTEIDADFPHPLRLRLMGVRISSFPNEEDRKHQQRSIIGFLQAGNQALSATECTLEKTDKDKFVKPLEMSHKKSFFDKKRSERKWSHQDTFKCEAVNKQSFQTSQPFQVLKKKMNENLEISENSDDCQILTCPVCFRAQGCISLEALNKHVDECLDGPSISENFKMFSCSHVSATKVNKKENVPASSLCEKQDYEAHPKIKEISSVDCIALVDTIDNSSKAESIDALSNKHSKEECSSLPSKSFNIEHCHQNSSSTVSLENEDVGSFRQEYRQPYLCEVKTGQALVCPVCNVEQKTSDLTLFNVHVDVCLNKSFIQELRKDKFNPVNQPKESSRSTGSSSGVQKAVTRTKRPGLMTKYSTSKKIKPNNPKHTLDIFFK
protocolDetails: qHTS for Inhibitors of Polymerase Kappa
conditionDetails: purified Pol kappa, fluorescent DNA synthesis assay, 10 min; series mostly up to 60.1 µM
Hit rate of the full screen: of about 400,000 compounds, about 2,200 (0.55%) were called active. Roughly 1% stayed inconclusive and do not appear here. The call rests on the fitted dose curve; in most records, active means well fitted inhibition curve with a large enough effect; inconclusive means small, poorly fitted or top-dose-only effect, or another doubt; inactive means no such curve, though single readings can be large or run the other way. Many of the other results were omitted from the sample, so actives are more common in it than they were.
// allowed return values: active, inactive

Consider the worked cases shown below.
Call for entry CO[C@@H]1C[C@@H](C[C@H]2CC[C@H](C)[C@@H]([C@@H](C)C(=O)O)O2)O[C@]2(O[C@](C)([C@H]3CC[C@@](C)(C4OC([C@H]5O[C@@](O)(CO)[C@H](C)C[C@@H]5C)C[C@@H]4C)O3)C[C@H]2C)[C@@H]1C (some centres not stated) :
inactive

Any idea what this test logged for NCCCCC(N)C(=O)O (configuration not stated) ?
inactive

// param item: CN[C@@H]1C[C@H]2O[C@@](C)([C@@H]1OC)n1c3ccccc3c3c4c(c5c6ccccc6n2c5c31)C(=O)NC4 ; yields the recorded call
inactive

Any idea what this test logged for c1ccc2sc(SNC3CCCCC3)nc2c1 ?
inactive

Tell me the recorded outcome of this test for CC1=CC(=O)C2=C(C)C[C@H](O)[C@H]3[C@H](C)C(=O)O[C@@H]3C12 (some centres not stated) .
inactive

New cases:
Hi, do you know how COC([CH2][Hg])CNC(=O)c1ccccc1OCC(=O)O (configuration not stated) came out in this test?
inactive

Fill in: this test's call for CN1CCN(C(=O)O[C@@H]2c3nccnc3C(=O)N2c2ccc(Cl)cn2)CC1 is ___
inactive

Name the outcome recorded for COc1ccc2[nH]cc(CCNCc3ccc(Br)cc3)c2c1 in the assay.
inactive

Returns: the outcome recorded for CC[C@]1(O)C(=O)OCc2c1cc1n(c2=O)Cc2cc3ccccc3nc2-1 in this assay.
inactive

How was COc1ccc(C2Oc3c(I)c(OC)cc(OC)c3CC2O)cc1OC (configuration not stated) classified in this test?
inactive

What classification did Fc1ccc(C(OCCN2CCN(C/C=C\c3ccccc3)CC2)c2ccc(F)cc2)cc1 end up with in this test?
inactive

Which outcome was assigned to CC(C)(Cc1c[nH]c2ccc(Cl)cc12)NCCOc1ccccc1OCC1CC1 in this test?
inactive

Just curious, what result did N#Cc1cc(Br)c(O)c(Br)c1 get here?
inactive

Identify the outcome logged in this assay for the compound shown: CC(=O)[O][Sn]([c]1ccccc1)([c]1ccccc1)[c]1ccccc1
inactive

Per the assay record, what outcome was assigned to Cc1cccc2c3c(ccc12)C1=C(C(=O)C3=O)C(C)CO1 (configuration not stated) ?
active

GET /call?item= CN(C)C[C@H]1CCCC[C@]1(O)c1cccc(O)c1 returns the recorded outcome of this test.
inactive

How was C[C@]12CC[C@@H]3c4ccc(O)cc4C[C@@H](CCCCCCCCCS(=O)CCCC(F)(F)C(F)(F)F)C3[C@@H]1CC[C@@H]2O (some centres not stated) classified in this test?
inactive

Recorded values, source PubChem BioAssay AID588579.
